measured_on: human TIMP-1 (human, UniProt P01033 24-207)
method_summary: cell-based or functional assay
reported_property: ID50 in human protease assay (modified assay) (nM)
Reply with just the number (in nM).

binder	endpoint_unit	recorded_number
MS-BW-44-6-1 (Fab, V domains shown) VH: QVQLVESGGGLVQPGGSLRLSCAASGFTFNSYAMSWVRQAPGKGLEWVSVISGNGSNTYYADSVKGRFTISRDNSKNTLYLQMNSLRAEDTAVYYCARFLDIWGQGTLVTVSS VL: DIALTQPASVSGSPGQSITISCTGTSSDVGGYNYVSWYQQHPGKAPKLMIYDVSNRPSGVSNRFSGSKSGNTASLTISGLQAEDEADYYCQSYDFIRFMVFGGGTKLTVLG	nM	0.2
MS-BW-44-2-15 (Fab, V domains shown) VH: QVQLVESGGGLVQPGGSLRLSCAASGFTFSSYAMSWVRQAPGKGLEWVSGISGNGVLIFYADSVKGRFTISRDNSKNTLYLQMNSLRAEDTAVYYCARWFDHWGQGTLVTVSS VL: DIALTQPASVSGSPGQSITISCTGTSSDVGGYNYVSWYQQHPGKAPKLMIYDVSNRPSGVSNRFSGSKSGNTASLTISGLQAEDEADYYCQSYDFVRFMVFGGGTKLTVLG	nM	0.2
MS-BW-44-2-4 (Fab, V domains shown) VH: QVQLVESGGGLVQPGGSLRLSCAASGFTFSSYAMSWVRQAPGKGLEWVSGISGNGVLIFYADSVKGRFTISRDNSKNTLYLQMNSLRAEDTAVYYCARGLMDYWGQGTLVTVSS VL: DIALTQPASVSGSPGQSITISCTGTSSDVGGYNYVSWYQQHPGKAPKLMIYDVSNRPSGVSNRFSGSKSGNTASLTISGLQAEDEADYYCQSYDFVRFMVFGGGTKLTVLG	nM	0.2

Q: Look at this binder and give its reported ID50 in human protease assay (modified assay). MS-BW-44-6 (Fab, V domains shown, Fab) VH: QVQLVESGGGLVQPGGSLRLSCAASGFTFNSYAMSWVRQAPGKGLEWVSVISGNGSNTYYADSVKGRFTISRDNSKNTLYLQMNSLRAEDTAVYYCARFLDIWGQGTLVTVSS VL: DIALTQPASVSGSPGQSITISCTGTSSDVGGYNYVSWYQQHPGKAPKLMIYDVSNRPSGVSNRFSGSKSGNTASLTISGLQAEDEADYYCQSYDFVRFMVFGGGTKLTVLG
Ans: 0.2
